Where these numbers come from: patent US20260308145A1

- TESTED TARGET: CDK1/cyclinB1 (Homo sapiens, UniProt P06493)
- Sequence (P06493 whole entry): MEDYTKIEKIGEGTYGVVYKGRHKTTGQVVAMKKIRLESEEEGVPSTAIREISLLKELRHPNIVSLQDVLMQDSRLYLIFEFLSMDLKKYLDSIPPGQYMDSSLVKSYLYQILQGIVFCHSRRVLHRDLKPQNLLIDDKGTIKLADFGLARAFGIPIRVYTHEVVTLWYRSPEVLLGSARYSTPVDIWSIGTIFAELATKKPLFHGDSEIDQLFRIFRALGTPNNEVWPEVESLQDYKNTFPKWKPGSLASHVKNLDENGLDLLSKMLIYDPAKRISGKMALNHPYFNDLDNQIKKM
- Sequence (P14635 whole entry partner): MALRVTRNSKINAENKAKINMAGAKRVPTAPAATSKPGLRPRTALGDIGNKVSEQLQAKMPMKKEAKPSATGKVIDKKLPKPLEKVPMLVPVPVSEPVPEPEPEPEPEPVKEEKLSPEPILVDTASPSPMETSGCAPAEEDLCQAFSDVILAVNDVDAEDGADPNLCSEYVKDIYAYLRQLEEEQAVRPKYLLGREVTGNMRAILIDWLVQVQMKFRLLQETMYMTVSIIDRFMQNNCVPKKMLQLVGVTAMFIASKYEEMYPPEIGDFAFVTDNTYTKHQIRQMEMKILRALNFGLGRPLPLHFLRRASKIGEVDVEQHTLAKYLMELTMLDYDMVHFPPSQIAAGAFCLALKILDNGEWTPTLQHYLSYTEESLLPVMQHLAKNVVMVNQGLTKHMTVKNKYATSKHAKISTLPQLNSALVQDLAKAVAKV
- TEST DETAILS: Cyclin-dependent kinase activity assay (continuous ATP coupling assay), CDK1/cyclinB1
- TEST CONDITIONS: CDK1/cyclinB1 10 nM, ATP 200 μM, Histone1 copeptide 100 μM, 15 min preincubation, pH 7.5, 1% DMSO
QUANTITY KIND: IC50

Field IC50 (entry CS(=O)(=O)Nc1ccc(Nc2ncc(C(F)(F)F)c(-n3cccn3)n2)cc1 ) reads ≥ 100 nM

Field IC50 (entry O=S(=O)(NCCO)c1ccc(Nc2ncc(Cl)c(-n3cccn3)n2)cc1 ) reads 10 to 100 nM

Field IC50 (entry CNS(=O)(=O)c1ccc(Nc2ncc(C(F)(F)F)c(-n3cc(C4CN(C)C4)cn3)n2)cc1 ) reads 10 to 100 nM

Field IC50 (entry NS(=O)(=O)c1ccc(Nc2ncc(C(F)(F)F)c(-n3cccn3)n2)cc1 ) reads ≥ 100 nM

Field IC50 (entry CNS(=O)(=O)c1ccc(Nc2ncc(C(F)(F)F)c(-n3cc(C4CCOC4)cn3)n2)cc1 (single isomer, unassigned) [Example 89] ) reads ≥ 100 nM

Field IC50 (entry O=S(=O)(NC1COC1)c1ccc(Nc2ncc(C(F)(F)F)c(-n3cccn3)n2)cc1 ) reads ≥ 100 nM

Field IC50 (entry O=S(=O)(c1ccc(Nc2ncc(C(F)(F)F)c(-n3cccn3)n2)cc1)N1CCNCC1 ) reads ≥ 100 nM

Field IC50 (entry CNS(=O)(=O)c1ccc(Nc2ncc(C(F)(F)F)c(-n3cc([C@H]4C[C@@H](O)C4)cn3)n2)cc1 ) reads 10 to 100 nM
